protocol_notes: Kinetic solubility of compound at pH 6.8
Format: physicochemical
condition_details: buffer
property_label: Kinetic_solubility

Some entries whose results are on file:
[[record]]
smiles_input = "CC(=O)N[C@H]1Cc2cccc(c2)Oc2cccc(c2)C[C@@H](C(=O)NCC(F)(F)F)NC(=O)[C@H](CCc2ccccc2)NC1=O"
property_label = "Kinetic_solubility"
measurement = "< 1.4 µg/mL"

[[record]]
smiles_input = "CC1(CNC(=O)[C@@H]2Cc3cccc(c3)Oc3cccc(c3)C[C@H](N3CCCC3=O)C(=O)N[C@@H](CCN3CCCCC3)C(=O)N2)CC1"
property_label = "Kinetic_solubility"
measurement = "> 130 µg/mL"

[[record]]
smiles_input = "Cn1cc(CNC(=O)[C@@H]2Cc3cccc(c3)Oc3cccc(c3)C[C@H](N3CCCC3=O)C(=O)N[C@@H](CCN3CCCCC3)C(=O)N2)cn1"
property_label = "Kinetic_solubility"
measurement = "> 150 µg/mL"


Looking up `CC(=O)N[C@H]1Cc2cccc(c2)Oc2cccc(c2)C[C@@H](C(=O)NCC(F)(F)F)NC(=O)[C@H](CC(C)C)NC1=O` , I found its Kinetic_solubility recorded as < 1.4 µg/mL

----------
protocol_notes: Kinetic solubility of compound at pH 6.8
Type: physicochemical
condition_details: buffer
Kinetic_solubility: recorded values

[[record]]
smiles_input = "O=C(NCC(F)(F)F)[C@@H]1Cc2cccc(c2)Oc2cccc(c2)C[C@H](N2CCCC2=O)C(=O)N[C@@H](CCN2CCCCC2)C(=O)N1"
measurement = "> 140 µg/mL"

[[record]]
smiles_input = "C[C@@H](NC(=O)[C@@H]1Cc2cccc(c2)Oc2cccc(c2)C[C@H](N2CCCC2=O)C(=O)N[C@@H](CCN2CCCCC2)C(=O)N1)C1CC1"
measurement = "> 140 µg/mL"


Looking up `CCC[C@@H]1NC(=O)[C@@H](NC(C)=O)Cc2cccc(c2)Oc2cccc(c2)C[C@@H](C(=O)NCC(F)(F)F)NC1=O` , I found its Kinetic_solubility recorded as < 1.9 µg/mL

Looking up `Cn1cc(CNC(=O)[C@@H]2Cc3cccc(c3)Oc3cccc(c3)C[C@H](NS(C)(=O)=O)C(=O)N[C@@H](CCN3CCCCC3)C(=O)N2)cn1` , I found its Kinetic_solubility recorded as > 140 µg/mL

Looking up `O=C(NCC(F)(F)F)[C@@H]1Cc2cccc(c2)Oc2cccc(c2)C[C@H](N2CCCC2=O)C(=O)N[C@@H](CCN2CCC[C@@H](F)C2)C(=O)N1` , I found its Kinetic_solubility recorded as > 130 µg/mL

Looking up `C[C@H](NC(=O)[C@@H]1Cc2cccc(c2)Oc2cccc(c2)C[C@H](N2CCCC2=O)C(=O)N[C@@H](CCN2CCCCC2)C(=O)N1)C1CC1` , I found its Kinetic_solubility recorded as > 120 µg/mL

----------
protocol_notes: Kinetic solubility of compound at pH 6.8
Format: physicochemical
condition_details: buffer
Binarize Kinetic_solubility at 10 µg/mL; below is class 1, at or above is class 0.

Worked examples, 5 compounds total:
[[record]]
smiles_input = "O=C(NCC1CC1)[C@@H]1Cc2cccc(c2)Oc2cccc(c2)C[C@H](N2CCCC2=O)C(=O)N[C@@H](CCN2CCCCC2)C(=O)N1"
assigned_class = "class 0"

[[record]]
smiles_input = "O=C(NC1CCCC1)[C@@H]1Cc2cccc(c2)Oc2cccc(c2)C[C@H](N2CCCC2=O)C(=O)N[C@@H](CCN2CCCCC2)C(=O)N1"
assigned_class = "class 0"

[[record]]
smiles_input = "CN1C(=O)[C@H](CCc2ccccc2)NC(=O)[C@@H](N2CCCC2=O)Cc2cccc(c2)Oc2cccc(c2)C[C@H]1C(=O)NCC(F)(F)F"
assigned_class = "class 1"

[[record]]
smiles_input = "O=C(NCC(F)(F)F)[C@@H]1Cc2cccc(c2)Oc2cccc(c2)C[C@H](N2CCCC2=O)C(=O)N[C@@H](CCc2ccccc2)C(=O)N1"
assigned_class = "class 1"

[[record]]
smiles_input = "COC[C@@H]1NC(=O)[C@@H](NC(C)=O)Cc2cccc(c2)Oc2cccc(c2)C[C@@H](C(=O)NCC(F)(F)F)NC1=O"
assigned_class = "class 0"


Now let's try a different one.
hey, is Kinetic_solubility for `CN1C(=O)[C@H](CCc2ccccc2)N(C)C(=O)[C@@H](N2CCCC2=O)Cc2cccc(c2)Oc2cccc(c2)C[C@H]1C(=O)NCC(F)(F)F` lower than 10 µg/mL or not?
class 1

----------
protocol_notes: Kinetic solubility of compound at pH 6.8
Type: physicochemical
condition_details: buffer
property_label: Kinetic_solubility

Some entries whose results are on file:
[[record]]
smiles_input = "O=C(NCC(F)(F)F)[C@@H]1Cc2cccc(c2)Oc2cccc(c2)C[C@H](N2CCCC2=O)C(=O)N[C@@H](CCN2CCC(F)(F)CC2)C(=O)N1"
property_label = "Kinetic_solubility"
measurement = "> 140 µg/mL"

[[record]]
smiles_input = "O=C(NCC(F)(F)F)[C@@H]1Cc2cccc(c2)Oc2cccc(c2)C[C@H](N2CCCC2=O)C(=O)N[C@@H](Cc2ccccc2)C(=O)N1"
property_label = "Kinetic_solubility"
measurement = "22 µg/mL"

[[record]]
smiles_input = "CC(=O)N[C@H]1Cc2cccc(c2)Oc2cccc(c2)C[C@@H](C(=O)NCC(F)(F)F)NC(=O)[C@H](CCC(F)(F)F)NC1=O"
property_label = "Kinetic_solubility"
measurement = "< 1.2 µg/mL"

[[record]]
smiles_input = "Cn1cc(CNC(=O)[C@@H]2Cc3cccc(c3)Oc3cccc(c3)C[C@H](N3CCCS3(=O)=O)C(=O)N[C@@H](CCN3CCCCC3)C(=O)N2)cn1"
property_label = "Kinetic_solubility"
measurement = "> 140 µg/mL"

[[record]]
smiles_input = "O=C(NC1CCCC1)[C@@H]1Cc2cccc(c2)Oc2cccc(c2)C[C@H](N2CCCS2(=O)=O)C(=O)N[C@@H](CCN2CCOCC2)C(=O)N1"
property_label = "Kinetic_solubility"
measurement = "> 130 µg/mL"

[[record]]
smiles_input = "O=C(NCC1CC1)[C@@H]1Cc2cccc(c2)Oc2cccc(c2)C[C@H](N2CCCC2=O)C(=O)N[C@@H](CCN2CCOCC2)C(=O)N1"
property_label = "Kinetic_solubility"
measurement = "> 130 µg/mL"


--- query ---
Looking up `O=C(NCC(F)(F)F)[C@@H]1Cc2cccc(c2)Oc2cccc(c2)C[C@H](N2CCOC2=O)C(=O)N[C@@H](CCN2CCCCC2)C(=O)N1` , I found its Kinetic_solubility recorded as 65 µg/mL
